Reported fold-change of OD 450 over negative control (BSA) values are given for each entry in this list.
- system: T1, Mature Activin A (human, UniProt P08476 311-426)
- T1 construct: also called active Activin A; INHBA mature
- T1 sequence: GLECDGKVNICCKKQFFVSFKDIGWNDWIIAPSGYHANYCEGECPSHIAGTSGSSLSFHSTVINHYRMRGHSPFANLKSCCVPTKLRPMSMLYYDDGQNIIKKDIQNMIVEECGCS
- method_notes: ELISA, coated antigen, OD450
Value expressed in fold; do not type the unit.

binder="AB843 (antibody, IgG1, V domains shown) VH: EVQLVQSGAEVKKPGASVKVSCKASGDTSSHSHIHWVRQAPGQGLEWMGWINPRSGATNYAQKLQGRGTMTTDPSTSTAYMELRSLRSDDTAVYYCARDRGGRTNGVGAFDIWGQGTMVTVSS VL: ESALTQPASVSGSPGQSITISCTGTSGDIGRYNYVSWYQQHPGKAPKLMIYEDIERPSGVSNRFSGSKSGNTASLTISGLQAEDEADYYCQVWDATLDLVFGGGTKLTVL" unit_label=fold result_number=24.7

(Q) Field request: fold-change of OD 450 over negative control (BSA) | item: AB432 (antibody, IgG1, V domains shown) VH: QVQLQESGPGLVKPSQTLSLTCTVSGVSLSNVRMGVNWIRQPPGKGLEWIGYVNPSGSTDYNPSLKSRVTMSVDTSKNQFSLKVNSVTAADTAVYYCARAGYPDVWGKGTLVTVSS VL: EIVMTQSPATLSLSPGERATLSCRASQSISSSQLAWYQQKPGQAPRLLIYGASTRATGIPARFSGSGSGTDFTLTISSLEPEDFAVYYCQQYNDRPRTFGGGTKVEIK
(A) 8.86

(Q) Field request: fold-change of OD 450 over negative control (BSA) | item: AB465 (antibody, IgG1, V domains shown) VH: QVQLQESGPGLVKPSQTLSLTCTVSGASVSNARTGVNWIRQPPGKGLEWIGYINPSGRIDYNPSLKSRVTMSVDTSKNQFSLKVNSVTAADTAVYYCARAGYPDVWGKGTTVTVSS VL: EIVMTQSPATLSLSPGERATLSCRASQTVSSHLAWYQQKPGQAPRLLIYDVSHRASGIPARFSGSGSGTDFTLTISSLEPEDFAVYYCQQYFTLPTFGGGTKVEIK
(A) 6.84

(Q) Field request: fold-change of OD 450 over negative control (BSA) | item: AB431 (antibody, IgG1, V domains shown, also called mAb 431) VH: EVQLVESGGGLVQPGGSLRLSCAASGFTSSNHWMSWVRQAPGKGLELVASIGPKGLGTYYPDSVKGRFTISRDNAKNSLYLQMNSLRAEDTAVYYCARDVRGWRALYYYYGMDVWGQGTTVTVSS VL: DIVMTQSPLSLPVTPGEPASISCRSSQSLLHVTGYNYLHWYLQKPGQSPQLLIYGASSRAAGVPDRFSGSGSGTDFTLKISRVEAEDVGVYYCMQSTQWPHTFGGGTKVEIK
(A) 1.04

(Q) Field request: fold-change of OD 450 over negative control (BSA) | item: AB352 (antibody, IgG1, V domains shown) VH: QVQLQESGPGLVKPSQTLSLTCTVSGFPLSTSRMGVNWIRQPPGKGLEWIGYINPSGATDYNPSLKSRVTMSVDTSKNQFSLKVNSVTAADTAVYYCARAGYPDVWGKGTTVTVSS VL: EIVMTQSPATLSLSPGERATLSCRASQSVSTHLAWYQQKPGQAPRLLIYDATNRATGIPARFSGSGSGTDFTLTISSLEPEDFAVYYCLQYTNYPWTFGGGTKVEIK
(A) 16.2
